Reference for the values: patent US8906911B2

Molecular target: human CCR2B (Homo sapiens (Human))
Experiment: Inhibition of native agonist (human MCP-1)-induced intracellular calcium release, calcium flux assay in CHO cells expressing human CCR2B and Gα16
Type: cell-based
Settings: calcium flux, human MCP-1 2 nM; read-out: hCCR2B IC50
Experimental: CHO cells expressing human CCR2B were generated as follows. cDNA for human CCR2B (cloned from human blood) was cloned into plasmid pcDNA3.1 (from Invitrogen). […] Briefly, cells were cultured overnight in a microtiter plate at 8000 per well. […] Calcium flux assays were performed on a FLIPR^Tetra instrument (Molecular Devices) by adding compound to the cells followed by addition of native agonist and measuring the change in fluorescence as a function of time. […]
Ranges used to classify IC50: low value = under 300 nM, medium value = from 300 nM up to 2000 nM, high value = 2000 nM and over

Q. Into which category would you place CO[C@@H]1COCC[C@@H]1N[C@@H]1C[C@H]2CCC[C@@]2(C(=O)N2C[C@@H]3C[C@H]2CN3c2ccnc(C(F)(F)F)c2)C1 ?
A. medium value

Q. // bin(item) where item = CO[C@@H]1COCC[C@@H]1N[C@@H]1C[C@H]2CCC[C@@]2(C(=O)N2C[C@@H]3C[C@H]2CN3c2nccc(C(F)(F)F)c2C)C1 (racemic)
A. medium value

Q. Band assignment needed for CO[C@@H]1COCC[C@H]1N[C@@H]1C[C@H]2CCC[C@@]2(C(=O)N2[C@@H]3CC[C@H]2CN(c2cc(C(F)(F)F)ccn2)C3)C1 please.
A. high value

Q. Which bin, given its IC50, does O=C(N1CCN(c2ccc(C(F)(F)F)cc2)CC1)C12CCCC1CC(N1CCC(c3ccccc3)CC1)C2 (stereo not drawn) [Compound B, reference compound] occupy?
A. high value

Q. Dear colleague, I would appreciate it if you could identify the bin for CN(C1CCOCC1)C1CC2CCCC2(C(=O)N2CCN(c3ccc(C(F)(F)F)cc3)CC2)C1 (stereo not drawn) [Compound A, reference compound] and reply at your convenience.
A. high value

Q. Quick check: band for CO[C@@H]1COCC[C@@H]1N(C)[C@@H]1C[C@H]2CCC[C@@]2(C(=O)N2C[C@@H]3C[C@H]2CN3c2cccc(Cl)c2C#N)C1
A. high value

Q. Bin this entry: CO[C@@H]1COCC[C@@H]1N[C@@H]1C[C@H]2CCC[C@@]2(C(=O)N2C[C@@H]3C[C@H]2CN3c2ccc(C#N)c(C(F)(F)F)c2)C1 (racemic)
A. low value

Q. Into which bin does this compound go? CO[C@@H]1COCC[C@@H]1N(C)[C@@H]1C[C@H]2CCC[C@@]2(C(=O)N2C[C@@H]3C[C@H]2CN3c2ccc(Cl)c(C(F)(F)F)c2)C1
A. low value

Q. For this compound, which bin applies? CO[C@@H]1COCC[C@@H]1N(C)[C@@H]1C[C@H]2CCC[C@@]2(C(=O)N2C[C@@H]3C[C@H]2CN3c2cc(C#N)cc(C(F)(F)F)c2)C1
A. medium value

Q. GET /class?item= CO[C@@H]1COCC[C@@H]1N[C@@H]1C[C@H]2CCC[C@@]2(C(=O)N2C[C@@H]3C[C@H]2CN3c2cccc(C(F)(F)F)c2C#N)C1
A. high value

Q. Kindly state the category for this compound: CO[C@@H]1COCC[C@@H]1N[C@@H]1C[C@H]2CCC[C@@]2(C(=O)N2C[C@@H]3C[C@H]2CN3c2ncc(C(F)(F)F)cc2Cl)C1
A. medium value

Q. Bin? CO[C@@H]1COCC[C@@H]1N[C@@H]1C[C@H]2CCC[C@@]2(C(=O)N2C[C@@H]3C[C@H]2CN3c2cccc(C(F)(F)F)n2)C1
A. low value

* * *

Would you mind telling me the reported Kb of each entry?
target: rat CCR2 (Rattus norvegicus (Rat)); test: Inhibition of native agonist (rat MCP-1)-induced intracellular calcium release, calcium flux assay in CHO cells expressing rat CCR2 and Gα16; format: cell-based; settings: read-out: rCCR2 Kb
Your answer should be a plain number; it is taken to be in nM.

Q. Fill in reported Kb for this entry: CO[C@@H]1COCC[C@@H]1N[C@@H]1C[C@H]2CCC[C@@]2(C(=O)N2C[C@@H]3C[C@H]2CN3c2ccnc(Cl)c2)C1
A. 240

Q. Given the molecule CO[C@@H]1COCC[C@@H]1N(C)[C@@H]1C[C@H]2CCC[C@@]2(C(=O)N2C[C@@H]3C[C@H]2CN3c2cc(C(F)(F)F)ccn2)C1 , write its reported Kb.
A. 10

Q. Output Kb of CO[C@@H]1COCC[C@@H]1N[C@@H]1C[C@H]2CCC[C@@]2(C(=O)N2C[C@@H]3C[C@H]2CN3c2cc(C(F)(F)F)cc(C)n2)C1
A. 74

Q. Consider the molecule CO[C@@H]1COCC[C@@H]1N[C@@H]1C[C@H]2CCC[C@@]2(C(=O)N2C[C@@H]3C[C@H]2CN3c2nccc(C(F)(F)F)c2F)C1 and give its recorded Kb.
A. 91

Q. Specify measured Kb for CO[C@@H]1COCC[C@@H]1N(C)[C@@H]1C[C@H]2CCC[C@@]2(C(=O)N2C[C@@H]3C[C@H]2CN3c2cc(C(F)(F)F)ccc2C#N)C1 .
A. 26

Q. Identify measured Kb corresponding to CO[C@@H]1COCC[C@@H]1N(C)[C@@H]1C[C@H]2CCC[C@@]2(C(=O)N2C[C@@H]3C[C@H]2CN3c2ccc(C#N)c(C(F)(F)F)c2)C1
A. 9

* * *

I'd appreciate it if you could supply log10 IC50 values for the items below.
Biological target: human CCR2B (Homo sapiens (Human), UniProt P41597)
Sequence (P41597 other isoform, or with tags, fused parts or gaps): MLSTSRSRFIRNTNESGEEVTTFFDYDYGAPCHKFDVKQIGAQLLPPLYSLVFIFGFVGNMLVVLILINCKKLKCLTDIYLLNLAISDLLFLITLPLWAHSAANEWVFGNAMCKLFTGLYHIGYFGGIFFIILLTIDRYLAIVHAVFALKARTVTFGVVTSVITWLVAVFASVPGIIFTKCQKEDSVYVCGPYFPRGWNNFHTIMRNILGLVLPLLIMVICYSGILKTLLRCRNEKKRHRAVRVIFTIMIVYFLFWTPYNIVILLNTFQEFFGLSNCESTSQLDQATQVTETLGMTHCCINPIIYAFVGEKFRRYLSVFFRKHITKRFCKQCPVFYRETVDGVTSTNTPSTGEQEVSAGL
Assay: Inhibition of native agonist (human MCP-1)-induced intracellular calcium release, calcium flux assay in CHO cells expressing human CCR2B and Gα16
Assay type: cell-based
Settings: calcium flux, human MCP-1 2 nM; read-out: hCCR2B IC50
Experimental: CHO cells expressing human CCR2B were generated as follows. cDNA for human CCR2B (cloned from human blood) was cloned into plasmid pcDNA3.1 (from Invitrogen). […] Briefly, cells were cultured overnight in a microtiter plate at 8000 per well. […] Calcium flux assays were performed on a FLIPR^Tetra instrument (Molecular Devices) by adding compound to the cells followed by addition of native agonist and measuring the change in fluorescence as a function of time. […]
Values reflect log10 of reported IC50 (nM).

Q. System human CCR2B (Homo sapiens (Human), UniProt P41597). Read-out log10 IC50. Item CO[C@@H]1COCC[C@@H]1N[C@@H]1C[C@H]2CCC[C@@]2(C(=O)N2C[C@@H]3C[C@H]2CN3c2cccc(C(F)(F)F)c2F)C1 . Report value.
A. 3.11

Q. State measured log10 IC50 of the compound C[C@@H]1COCC[C@H]1N[C@@H]1C[C@H]2CCC[C@@]2(C(=O)N2C[C@@H]3C[C@H]2CN3c2cc(C(F)(F)F)ccn2)C1 with human CCR2B (Homo sapiens (Human), UniProt P41597).
A. 1.22

Q. Report the value of log10 IC50 obtained on human CCR2B (Homo sapiens (Human), UniProt P41597) for CO[C@@H]1COCC[C@@H]1N(C)[C@@H]1C[C@H]2CCC[C@@]2(C(=O)N2C[C@@H]3C[C@H]2CN3c2ccc(C#N)c(C(F)(F)F)c2)C1 .
A. 1.66

Q. Return reported log10 IC50 for target or system human CCR2B (Homo sapiens (Human), UniProt P41597), item CO[C@@H]1COCC[C@@H]1N(C)[C@@H]1C[C@H]2CCC[C@@]2(C(=O)N2C[C@@H]3C[C@H]2CN3c2cc(C(F)(F)F)ccn2)C1 .
A. 1.82

Q. Return reported log10 IC50 for target or system human CCR2B (Homo sapiens (Human), UniProt P41597), item CO[C@@H]1COCC[C@@H]1N[C@@H]1C[C@H]2CCC[C@@]2(C(=O)N2C[C@@H]3C[C@H]2CN3c2ccc(C)c(C(F)(F)F)c2)C1 .
A. 2.37

Q. Fill in log10 IC50 for CO[C@@H]1COCC[C@@H]1N[C@@H]1C[C@H]2CCC[C@@]2(C(=O)N2C[C@@H]3C[C@H]2CN3c2cc(C)cc(C(F)(F)F)c2)C1 tested with human CCR2B (Homo sapiens (Human), UniProt P41597).
A. 3.14

* * *

molecular target: rat CCR2 (Rattus norvegicus (Rat), UniProt O55193); assay: Inhibition of native agonist (rat MCP-1)-induced intracellular calcium release, calcium flux assay in CHO cells expressing rat CCR2 and Gα16; type: cell-based; settings: read-out: rCCR2 Kb
Sequence (O55193 whole entry): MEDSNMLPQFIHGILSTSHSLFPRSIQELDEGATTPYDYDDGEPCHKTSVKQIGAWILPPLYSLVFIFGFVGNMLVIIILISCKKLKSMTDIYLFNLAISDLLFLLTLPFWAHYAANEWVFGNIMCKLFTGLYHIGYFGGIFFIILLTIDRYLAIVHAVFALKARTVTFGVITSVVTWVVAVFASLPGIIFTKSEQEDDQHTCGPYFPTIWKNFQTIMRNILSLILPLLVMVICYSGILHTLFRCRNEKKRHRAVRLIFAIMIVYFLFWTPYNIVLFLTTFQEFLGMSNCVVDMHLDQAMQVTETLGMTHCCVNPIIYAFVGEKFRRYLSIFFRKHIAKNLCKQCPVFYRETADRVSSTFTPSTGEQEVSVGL
readout.type: log10(Kb) (log10 of the value in nM)
In plain terms, each number is the log10 of measured Kb in nM.

Q. Name the value of log10(Kb) reported for CO[C@@H]1COCC[C@@H]1N(C)[C@@H]1C[C@H]2CCC[C@@]2(C(=O)N2C[C@@H]3C[C@H]2CN3c2cccc(C(F)(F)F)c2C#N)C1 when tested on rat CCR2 (Rattus norvegicus (Rat), UniProt O55193).
A. 3.36

Q. State the measured log10(Kb) (rat CCR2 (Rattus norvegicus (Rat), UniProt O55193)) of CO[C@@H]1COCC[C@@H]1N[C@@H]1C[C@H]2CCC[C@@]2(C(=O)N2C[C@@H]3C[C@H]2CN3c2nccc(C(F)(F)F)c2C)C1 (racemic)
A. 2.50

Q. With rat CCR2 (Rattus norvegicus (Rat), UniProt O55193) as the test system, provide measured log10(Kb) for this molecule: CO[C@@H]1COCC[C@@H]1N[C@@H]1C[C@H]2CCC[C@@]2(C(=O)N2C[C@@H]3C[C@H]2CN3c2cccc(C(F)(F)F)c2C#N)C1
A. 2.73

Q. Please report log10(Kb) with rat CCR2 (Rattus norvegicus (Rat), UniProt O55193) for item CO[C@@H]1COCC[C@@H]1N[C@@H]1C[C@H]2CCC[C@@]2(C(=O)N2C[C@@H]3C[C@H]2CN3c2ccc(C(F)(F)F)cn2)C1 .
A. 2.53

Q. Report value: log10(Kb), system: rat CCR2 (Rattus norvegicus (Rat), UniProt O55193), molecule: CO[C@@H]1COCC[C@@H]1N[C@@H]1C[C@H]2CCC[C@@]2(C(=O)N2C[C@@H]3C[C@H]2CN3c2ccc(Cl)c(C(F)(F)F)c2)C1
A. 0.48

Q. Give log10(Kb) for O=C(O)c1cccc(C2CCN([C@H]3C[C@H]4CCC[C@@]4(C(=O)N4C[C@@H]5C[C@H]4CN5c4cc(C(F)(F)F)ccn4)C3)CC2)c1 tested on rat CCR2 (Rattus norvegicus (Rat), UniProt O55193).
A. 1.34
